# Tested on: CP185
# experiment_description: qHTS profiling for inhibitors of Plasmodium falciparum proliferation (AID 504749); also: nearly all actives have a fitted effect of over 60% in size
# measurement_conditions: P. falciparum in erythrocytes, SYBR Green DNA, 72 h; series mostly up to 28.7 µM
Results filed as inconclusive are left out. Active and inactive are the calls of the source. Calls follow the shape of the dose curve; as a rule, active = well fitted inhibition curve with a large enough effect; inconclusive = small, poorly fitted or top-dose-only effect; inactive = flat fitted curve, though single readings scatter.
One label from this list, please: True for active, False for inactive

- smiles_input: "C[N+]1(C)CCC(=C(c2ccccc2)c2ccccc2)CC1"
  class_label: "False"

Fill in: this test's call for `CC(C)(C)NC[C@H](O)COc1cccc2c1CCCC2=O` is ___
False

Test call, this compound: `CCOC(=O)c1c(N)sc2c1CCN(Cc1ccccc1)C2`
True

Outcome? `COc1ccc(CN(CCN(C)C)c2ncccn2)cc1`
False

Please indicate how the test categorized `Cc1ccc(O)c([C@H](CCN(C(C)C)C(C)C)c2ccccc2)c1` .
True

// param item: `CN1CCN(C2=Nc3ccccc3Sc3ccc(Cl)cc32)CC1` ; yields the recorded call
False

====

# System: MKL-1
# experiment_description: qHTS assay to identify novel small-molecules to repurpose for Merkel cell carcinoma treatment (AID 1296009); also: nearly all actives have a fitted effect of over 60% in size
# measurement_conditions: MCC and control cell lines, CellTiter-Glo viability, 72 h; series mostly up to 46 µM
Records with an inconclusive call do not appear. Active and inactive are the calls of the source. Calls follow the shape of the dose curve; as a rule, active = well fitted inhibition curve with a large enough effect; inconclusive = small, poorly fitted or top-dose-only effect; inactive = flat fitted curve, though single readings scatter.
Thanks in advance; please answer with one of these: active, inactive

The examples below pair each entry with its known result.
- compound: "CCOC(=O)c1ccc(N)cc1"
  class_label: "inactive"
- compound: "CN1CCN(c2cc3c(cc2F)c(=O)c(C(=O)O)cn3-c2ccc(F)cc2)CC1"
  class_label: "inactive"
- compound: "CCCCN=C(N)N=C(N)N"
  class_label: "inactive"
- compound: "CCc1oc2ccccc2c1C(=O)c1cc(Br)c(O)c(Br)c1"
  class_label: "inactive"
- compound: "CCCCc1cc2ccccc2c(OCCN(C)C)n1"
  class_label: "inactive"

Hi, do you know how `CO[C@H]1C=CO[C@@]2(C)Oc3c(C)c(O)c4c(O)c(c(/C=N/N5CCN(C)CC5)c(O)c4c3C2=O)NC(=O)/C(C)=C\C=C[C@H](C)[C@H](O)[C@@H](C)[C@@H](O)[C@@H](C)[C@H](OC(C)=O)[C@@H]1C` came out in this test?
active

Please indicate how the test categorized CC(C(=O)O)c1cccc(Oc2ccccc2)c1 (stereo not given) .
inactive

Called result for CC[N+](C)(CC)CCOC(=O)C(O)(c1ccccc1)C1CCCCC1 (stereo not given)
inactive

In this assay, the call recorded for `CC(C)Cn1cnc2c1c(=O)n(C)c(=O)n2C` was what?
inactive

Given `COc1ccc(-c2cc(C(F)F)nn2-c2ccc(S(N)(=O)=O)cc2)cc1F` , state the outcome it received in this test.
inactive

====

# Test system: CP291
# experiment_description: qHTS profiling for inhibitors of Plasmodium falciparum proliferation (AID 504749); also: nearly all actives have a fitted effect of over 60% in size
# measurement_conditions: P. falciparum in erythrocytes, SYBR Green DNA, 72 h; series mostly up to 28.7 µM
Records with an inconclusive call do not appear. Activity calls are given as the source filed them. Calls come from the whole dose curve; as a rule, active = well fitted inhibition curve with a large enough effect; inconclusive = small, poorly fitted or top-dose-only effect; inactive = flat fitted curve, though single readings scatter.
Choose the fitting class; nothing outside active, inactive is accepted.

- molecule: "CN(Cc1ccc(C(C)(C)C)cc1)Cc1cccc2ccccc12"
  subject_of_test: "CP291"
  class_label: "inactive"
- molecule: "CCCCCCCC/C=C\\CCCCCCCCN"
  subject_of_test: "CP291"
  class_label: "inactive"
- molecule: "CCCN(CCc1cccs1)[C@H]1CCc2c(O)cccc2C1"
  subject_of_test: "CP291"
  class_label: "active"
- molecule: "O=C(NCCc1c[nH]c2ccccc12)c1cccnc1"
  subject_of_test: "CP291"
  class_label: "inactive"
- molecule: "CC(C)CCCC(C)N (stereo unspecified)"
  subject_of_test: "CP291"
  class_label: "inactive"

Can you look up the reported call for `CCCc1ncc(C[n+]2ccccc2C)c(N)n1` for me?
inactive

I'd appreciate the recorded outcome for `O=C(Oc1cccc2cccnc12)c1ccccc1` from this test.
inactive

Outcome logged for `O=C(Nc1ccc([N+](=O)[O-])cc1)Nc1ccc([N+](=O)[O-])cc1` in this assay:
inactive

So what was the verdict on `NCc1ccccc1Sc1ccccc1CO` in this test?
inactive

Kindly provide the recorded test outcome for the following molecule: `CCOC(=O)Nc1ccc2c(c1)N(C(=O)CCN1CCOCC1)c1ccccc1S2`
inactive

Given CCc1ccc(C(=O)C(C)CN2CCCCC2)cc1 (stereo unspecified) , state the outcome it received in this test.
inactive

Hey, what did the test say about `COc1ccc(C(Cl)=C(c2ccc(OC)cc2)c2ccc(OC)cc2)cc1` ?
inactive

Returns: the outcome recorded for `CCOc1ccccc1OCCN[C@H](C)Cc1ccc(OC)c(S(N)(=O)=O)c1` in this assay.
inactive

Test call, this molecule: `COc1ccc(/C=N/NC(=O)c2ccncc2)cc1OC`
inactive

Please share the test call associated with `CCCCCN=C(N)N/N=C/c1c[nH]c2ccc(OC)cc12` .
active

For `O=C(O)P(=O)(O)O` , what call appears in the results of this test?
inactive

Record lookup: outcome of this test for `CCCCCCCCCCCCSCCOCCO` ?
inactive

====

# Tested on: WaGa
# experiment_description: qHTS assay to identify novel small-molecules to repurpose for Merkel cell carcinoma treatment (AID 1296009); also: nearly all actives have a fitted effect of over 60% in size
# measurement_conditions: MCC and control cell lines, CellTiter-Glo viability, 72 h; series mostly up to 46 µM
Inconclusive results are not listed. Activity calls are given as the source filed them. Calls follow the shape of the dose curve; as a rule, active = well fitted inhibition curve with a large enough effect; inconclusive = small, poorly fitted or top-dose-only effect; inactive = flat fitted curve, though single readings scatter.
In this exercise, the only acceptable responses are 1 (yes) = active, 0 (no) = inactive

Worked examples follow.
- compound: "Cc1ccc(-c2ncc(Cl)cc2-c2ccc(S(C)(=O)=O)cc2)cn1"
  class_label: "0 (no)"
- compound: "OCc1ccccn1"
  class_label: "0 (no)"
- compound: "C=CCN1CCc2nc(N)sc2CC1"
  class_label: "0 (no)"
- compound: "CC(C)Cn1cnc2c1c(=O)n(C)c(=O)n2C"
  class_label: "0 (no)"
- compound: "Cl/C(=C\\n1cncn1)c1ccc(Cl)cc1Cl"
  class_label: "0 (no)"
- compound: "CN1CCN(c2c(F)cc3c(=O)c(C(=O)O)cn4c3c2SCC4)CC1"
  class_label: "0 (no)"

Next:
For `COc1ccc(C(=O)c2ccccc2)c(O)c1` , what call appears in the results of this test?
0 (no)

====

# Test system: P94_40
# experiment_description: qHTS profiling for inhibitors of Plasmodium falciparum proliferation (AID 504749); also: nearly all actives have a fitted effect of over 60% in size
# measurement_conditions: P. falciparum in erythrocytes, SYBR Green DNA, 72 h; series mostly up to 28.7 µM
Results filed as inconclusive are left out. Activity calls are given as the source filed them. Calls come from the whole dose curve; as a rule, active = well fitted inhibition curve with a large enough effect; inconclusive = small, poorly fitted or top-dose-only effect; inactive = flat fitted curve, though single readings scatter.
Output constraint: value belongs to y (active), n (inactive)

// below: answered molecules
- molecule: "CC[N+](C)(CC)CCOC(=O)C(O)(c1ccccc1)C1CCCCC1 (stereo not drawn)"
  class_label: "n"
- molecule: "CC(=O)NCCCCCC(=O)O"
  class_label: "n"
- molecule: "Cc1c(-c2ccccc2)oc2c(C(=O)OCCN3CCCCC3)cccc2c1=O"
  class_label: "n"

Hi, sorry to bother you, what did the test record for `CCCCCCCCCCCCCCCC(=O)O` ?
n

Could you check what this test reported for `NC(=O)C1(N2CCCCC2)CCN(CCCC(=O)c2ccc(F)cc2)CC1` ?
n

What classification did `O=C(CN1CCN(Cc2ccc3c(c2)OCO3)CC1)N1c2ccccc2Sc2ccccc21` end up with in this test?
y

Hi, sorry to bother you, what did the test record for `NCCNc1cccc2ccccc12` ?
n

GET /call?item= `Cc1ccc(S(=O)(=O)NC(=O)NC2CCCC2)cc1` returns the recorded outcome of this test.
n

====

# Tested on: MKL-1
# experiment_description: qHTS assay to identify novel small-molecules to repurpose for Merkel cell carcinoma treatment (AID 1296009); also: nearly all actives have a fitted effect of over 60% in size
# measurement_conditions: MCC and control cell lines, CellTiter-Glo viability, 72 h; series mostly up to 46 µM
Records with an inconclusive call do not appear. Active and inactive are the calls of the source. Calls follow the shape of the dose curve; as a rule, active = well fitted inhibition curve with a large enough effect; inconclusive = small, poorly fitted or top-dose-only effect; inactive = flat fitted curve, though single readings scatter.
Mark one answer only. Choices: active, inactive

Below, 3 compounds whose answers are already recorded.
- compound: "CNCCc1ccccn1"
  subject_of_test: "MKL-1"
  class_label: "inactive"
- compound: "Oc1ccc(Cl)cc1Cc1cc(Cl)ccc1O"
  subject_of_test: "MKL-1"
  class_label: "active"
- compound: "CCCCOC(=O)CC(CC(=O)OCCCC)(OC(C)=O)C(=O)OCCCC"
  subject_of_test: "MKL-1"
  class_label: "inactive"

Now look at this entry.
State the result this test recorded for `Oc1ccccc1C=NCc1ccccc1` .
inactive

====

# Test system: WaGa
# experiment_description: qHTS assay to identify novel small-molecules to repurpose for Merkel cell carcinoma treatment (AID 1296009); also: nearly all actives have a fitted effect of over 60% in size
# measurement_conditions: MCC and control cell lines, CellTiter-Glo viability, 72 h; series mostly up to 46 µM
# Source text: MCC is a rare and aggressive neuroendocrine skin cancer with limited treatment options. Approximately 80% of MCCs have the Merkel cell polyomavirus (MCPyV) DNA integrated into the host genome (virus-positive: VP-MCC) and viral oncogenes drive oncogenesis. The remaining MCCs are virus-negative (VN-MCC) and are caused by UV mutagenesis. […] Using cell viability as a readout (CellTiter-Glo assay) we found both overlapping and distinct drugs that can be repurposed for the treatment of VP-MCC and VN-MCC. […]
Results filed as inconclusive are left out. Calls of active or inactive are those of the source. Calls come from the whole dose curve; as a rule, active = well fitted inhibition curve with a large enough effect; inconclusive = small, poorly fitted or top-dose-only effect; inactive = flat fitted curve, though single readings scatter.
Return exactly one item of Y = active, N = inactive

Worked set:
- molecule: "CCOc1cc(OCC)c(C(=O)CCC(=O)O)cc1OCC"
  subject_of_test: "WaGa"
  class_label: "N"
- molecule: "Nc1nc(-c2ccccc2)c(Br)c(=O)[nH]1"
  subject_of_test: "WaGa"
  class_label: "N"
- molecule: "CCOC(=O)C(C#N)=C(c1ccccc1)c1ccccc1"
  subject_of_test: "WaGa"
  class_label: "N"

Each molecule tested received a call. Report the one for `Cc1ccc2c(Br)cc(Br)c(O)c2n1` .
Y

Lab log entry: `CCOC(=O)c1ccc(N)cc1` — outcome as called in the assay?
N

Please state the recorded outcome for this molecule: `CCCCCCCCOc1ccc(C(=O)c2ccccc2)c(O)c1`
N

Look up the recorded call for `CCCCCCCCCCC[C@@H](C[C@@H]1OC(=O)[C@H]1CCCCCC)OC(=O)[C@H](CC(C)C)NC=O` in this test.
N

# fetch the recorded call for CCN(CC)CCOC(=O)C(Cc1cccc2ccccc12)CC1CCCO1 (stereo not given) here
N

Tell me the recorded outcome of this test for CC(C)(C)NCC(O)COc1cccc2c1C[C@H](O)[C@H](O)C2 (stereo not given in full) .
N
